The measured values listed here are drawn from ChEMBL document CHEMBL4325862.

Measured EC50 of individual entries
system: DNA (cytosine-5)-methyltransferase 3A (Homo sapiens)
Sequence (Q9Y6K1 whole entry, looked up, the tested form may be a part): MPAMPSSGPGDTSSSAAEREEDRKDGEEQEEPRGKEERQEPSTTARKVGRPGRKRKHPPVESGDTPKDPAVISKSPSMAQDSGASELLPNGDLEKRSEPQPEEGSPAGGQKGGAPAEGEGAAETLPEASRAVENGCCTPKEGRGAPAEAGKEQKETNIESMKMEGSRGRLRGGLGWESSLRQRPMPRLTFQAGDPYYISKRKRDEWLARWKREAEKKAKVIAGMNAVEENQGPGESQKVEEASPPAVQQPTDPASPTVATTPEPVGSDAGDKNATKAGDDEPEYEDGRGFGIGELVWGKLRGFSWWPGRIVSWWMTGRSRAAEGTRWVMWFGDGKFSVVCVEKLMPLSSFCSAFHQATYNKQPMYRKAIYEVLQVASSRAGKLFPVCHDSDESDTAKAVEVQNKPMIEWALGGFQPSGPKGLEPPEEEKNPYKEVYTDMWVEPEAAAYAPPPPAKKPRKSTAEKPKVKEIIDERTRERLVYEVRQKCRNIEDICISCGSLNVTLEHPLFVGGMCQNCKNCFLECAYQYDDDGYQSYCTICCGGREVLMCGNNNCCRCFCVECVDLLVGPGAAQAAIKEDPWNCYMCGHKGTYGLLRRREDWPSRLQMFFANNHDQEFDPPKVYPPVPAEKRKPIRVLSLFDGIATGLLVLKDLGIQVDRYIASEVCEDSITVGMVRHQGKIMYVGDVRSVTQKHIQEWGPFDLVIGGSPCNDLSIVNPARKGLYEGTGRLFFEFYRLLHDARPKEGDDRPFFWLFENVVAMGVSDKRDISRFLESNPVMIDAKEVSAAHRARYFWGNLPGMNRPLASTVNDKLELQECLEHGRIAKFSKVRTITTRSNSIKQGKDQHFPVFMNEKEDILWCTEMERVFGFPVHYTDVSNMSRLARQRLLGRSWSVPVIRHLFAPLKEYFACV
testProtocol: Inhibition of recombinant human DNMT3a C-terminal catalytic domain (623 to 908 residues) using 5'-biotinylated/3'-FAM-oligonucleotide as substrate measured after 1 hr in presence of Adomet by fluorescence assay
Response body: numeric value in µM, unit text excluded.

smilesText	system	unitOfMeasurement	EC50
COc1ccc2nc(N3CCN(c4ccccc4)CC3)nc(NC3CCN(Cc4ccccc4)CC3)c2c1	DNA (cytosine-5)-methyltransferase 3A (Homo sapiens)	µM	5.4
COc1cc2c(NC3CCN(Cc4ccccc4)CC3)nc(N3CCN(c4ccccc4)CC3)nc2cc1O	DNA (cytosine-5)-methyltransferase 3A (Homo sapiens)	µM	6.2
COc1ccc2c(NC3CCN(Cc4ccccc4)CC3)nc(N3CCN(c4ccccc4)CC3)nc2c1	DNA (cytosine-5)-methyltransferase 3A (Homo sapiens)	µM	4.6

Query :: Query: EC50; subject: COc1cc2nc(N3CCN(c4ccccc4)CC3)nc(NC3CCN(Cc4ccccc4)CC3)c2cc1OC
Result :: 5.4

Query :: GET /values?readout=EC50&item= c1ccc(CCCN2CCC(Nc3nc(N4CCN(c5ccccc5)CC4)nc4ccccc34)CC2)cc1
Result :: 5.1

Query :: # input compound: COc1ccc(CCN2CCC(Nc3nc(NCc4ccc(F)cc4)nc4ccccc34)CC2)cc1 ; wanted: its EC50
Result :: 4.8

Query :: Requested field: EC50. Item: COc1cc2nc(NCc3ccc(F)cc3)nc(NC3CCN(C(=O)OC(C)(C)C)CC3)c2cc1OC
Result :: 8.7

Query :: I am curious: what EC50 value has been reported for COc1ccc(CCN2CCC(Nc3nc(NCc4ccc(F)cc4)nc4cc(OC)c(OC)cc34)CC2)cc1 ?
Result :: 5.2

Query :: What value of EC50 has been recorded for this entry: c1ccc(N2CCN(c3nc(NC4CCN(Cc5ccc6ccccc6c5)CC4)c4ccccc4n3)CC2)cc1
Result :: 2.4

Query :: What does the record list as EC50 for c1ccc(CCN2CCC(Nc3nc(N4CCN(c5ccccc5)CC4)nc4ccccc34)CC2)cc1 ?
Result :: 5.4

Query :: GET /values?readout=EC50&item= COc1cc2c(NC3CCN(Cc4ccccc4)CC3)nc(N3CCN(c4ccccc4)CC3)nc2cc1OCc1ccccc1
Result :: 1.6

====

Recorded pIC50 for the following molecules
system: Histone deacetylase 4 (Homo sapiens, UniProt P56524)
Sequence (P56524 whole entry): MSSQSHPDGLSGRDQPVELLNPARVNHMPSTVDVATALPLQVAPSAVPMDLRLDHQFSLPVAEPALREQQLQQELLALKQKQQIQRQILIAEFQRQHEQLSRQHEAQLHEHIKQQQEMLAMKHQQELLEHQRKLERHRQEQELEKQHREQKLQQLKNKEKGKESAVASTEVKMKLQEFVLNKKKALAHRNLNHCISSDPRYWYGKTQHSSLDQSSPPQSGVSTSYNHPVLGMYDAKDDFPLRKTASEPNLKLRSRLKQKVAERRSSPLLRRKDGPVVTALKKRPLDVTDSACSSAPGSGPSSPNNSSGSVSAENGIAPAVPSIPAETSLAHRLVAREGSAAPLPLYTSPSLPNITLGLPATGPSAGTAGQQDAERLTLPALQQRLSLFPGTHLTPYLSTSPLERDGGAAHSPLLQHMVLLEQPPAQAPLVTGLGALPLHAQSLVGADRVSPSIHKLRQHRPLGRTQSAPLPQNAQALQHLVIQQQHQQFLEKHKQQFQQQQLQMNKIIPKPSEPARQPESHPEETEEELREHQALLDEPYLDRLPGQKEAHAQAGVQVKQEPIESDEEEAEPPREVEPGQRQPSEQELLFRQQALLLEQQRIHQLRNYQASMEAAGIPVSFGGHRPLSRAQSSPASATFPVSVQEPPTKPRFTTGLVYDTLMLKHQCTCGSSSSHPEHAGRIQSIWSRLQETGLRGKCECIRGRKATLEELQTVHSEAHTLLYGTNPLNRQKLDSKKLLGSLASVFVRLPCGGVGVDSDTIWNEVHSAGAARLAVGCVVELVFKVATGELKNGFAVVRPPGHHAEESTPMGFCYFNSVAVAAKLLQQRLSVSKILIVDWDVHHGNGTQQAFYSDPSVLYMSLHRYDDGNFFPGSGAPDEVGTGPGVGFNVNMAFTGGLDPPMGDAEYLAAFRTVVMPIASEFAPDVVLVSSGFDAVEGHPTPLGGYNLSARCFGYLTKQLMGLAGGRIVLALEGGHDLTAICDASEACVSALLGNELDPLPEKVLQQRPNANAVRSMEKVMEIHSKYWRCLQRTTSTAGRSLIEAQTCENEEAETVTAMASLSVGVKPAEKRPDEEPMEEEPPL
testProtocol: Inhibition of recombinant human HDAC4 using Boc-Lys(trifluoroacetyl)-AMC as substrate by homogeneous fluorescence release assay
pIC50: −log10 of the molar value.

smilesText	result
O=C(CCCCCSc1nc(-c2ccc(-c3ccccc3)cc2)cc(=O)[nH]1)NO	< 4.30
O=C(Cc1ccccc1)Nc1ccc(C(=O)NO)nc1	4.96
O=C(CCCCCSc1nc(-c2ccc3ccccc3c2)cc(=O)[nH]1)NO	< 4.30
O=C(CCCCSc1nc(-c2ccc3ccccc3c2)cc(=O)[nH]1)NO	< 4.30
O=C(Cc1cccc2ccccc12)Nc1ccc(C(=O)NO)nc1	< 4.30

Now consider a different molecule.
Query :: Name the reported pIC50 value associated with the molecule O=C(/C=C/c1ccc(NC(=O)Cc2cccc3ccccc23)cn1)NO
Result :: 5.57

====

testProtocol: Plasma concentration in Crl:NRMI mouse at 10 mg/kg, iv measured after 15 mins by LC-MS/MS analysis
Type: ADME, organism-based
recordedEndpoint: concentration at 0.25 h

Query :: Bench note: what concentration at 0.25 h did COc1cc2nc(NCc3ccc(F)cc3)nc(NC3CCN(C(=O)OC(C)(C)C)CC3)c2cc1OC show?
Result :: 3.41 to 5.11 µM
